# Tested on: IGROV-1
# ASSAY_TEXT: NCI tumour cell line growth inhibition, 48 h
Calls of active or inactive are those of the source. No stated cut-off is given here; in the data, active = GI50 up to about 1.1 µM and inactive = higher.
Return exactly one item of active, inactive

IN: Which outcome did this test record for the molecule `Cc1c2c(cc3c1[nH]c1ccccc13)C=NCC2` ?
OUT: inactive

IN: Recorded test call requested for CCc1cc2c(c3c1CCCC3=O)CC1(Cc3ccc(C(=O)OC)cc3C1)C2 (stereo not given)
OUT: inactive

IN: Tell me the recorded outcome of this test for CC1=C2CC3=C(C)C(=O)O[C@H]3C[C@@H](C)[C@@H]2CC1 [AMERICANOLIDE D] .
OUT: inactive

IN: What did the test return for Cc1ccc(S(=O)(=O)N/N=C(\c2nc3ccc([N+](=O)[O-])cc3nc2O)C(O)c2ccccc2Cl)cc1 (stereo not given) ?
OUT: inactive

IN: What did this assay record as the result for CC(=O)OC1COC(Nn2c(=O)[nH]c3ccccc3c2=O)C(OC(C)=O)C1OC(C)=O (stereo not given) ?
OUT: inactive

IN: What call does the record list for CC[C@@]1(OC(=O)C(N)CCCCN)C(=O)OCc2c1cc1n(c2=O)Cc2cc3ccccc3nc2-1 (stereo not given in full) ?
OUT: active

IN: For [N-]=[N+]=NC1C(O)C(CO)OC1n1cnc2c(N)ncnc21 (stereo not given) , which call appears in the assay record?
OUT: inactive

IN: Which outcome was entered for the molecule `O=[N+]([O-])c1ccc(S(=O)(=O)Cc2ccccc2)c([N+](=O)[O-])c1` in this test?
OUT: inactive

IN: What classification did `N=C(N)C1=C(O)NC(=O)N(C2CCCCC2)C1` end up with in this test?
OUT: inactive

IN: Identify the outcome logged in this assay for the molecule shown: `Cc1cc(CCC(=O)NCCNc2c3ccccc3nc3ccccc23)cc(C)c1O[Si](C)(C)C(C)(C)C`
OUT: inactive

IN: Fill in: this test's call for `O=C(O)c1ccccc1/C=C1\Cc2cc3c(cc2C1=O)CCC3` is ___
OUT: inactive

IN: State the result this test recorded for `CO[C@]12C[C@H](CNC(=O)c3ccc[nH]3)O[C@H]1NC(=O)N2` .
OUT: inactive

IN: So what was the verdict on O=C1[C@@H]2Cc3c([nH]c4ccccc34)C(C3CCCCC3)N2C(=O)[C@@H]2CCCN12 (stereo not given in full) in this test?
OUT: inactive

IN: Could you check what this test reported for `N#Cc1c(N2CCCC2)ncn(Cc2ccccc2)c1=O` ?
OUT: inactive

IN: Query: recorded result category for `CCN1CCN=C2c3cc(OC)ccc3Nc3c([N+](=O)[O-])ccc1c32` in this test
OUT: inactive

IN: I'd appreciate the recorded outcome for `NNC(=O)CC(=O)Nc1ccc(Cl)cc1` from this test.
OUT: inactive

IN: I'd appreciate the recorded outcome for `CCOC(=O)c1nc2ccccc2nc1Oc1ccc(C#N)cc1` from this test.
OUT: inactive

IN: Which outcome did this test record for the molecule `COc1cc2c(c3c1c(=O)c1ccccc1n3C)C=C([N+](=O)[O-])C(C)(C)O2` ?
OUT: active

IN: Assay outcome for CC(NC(=O)OC(C)(C)C)C(=O)NC(Cc1ccccc1)C(=O)NCC(=O)ON=C1CCCC1 (stereo not given) : what was it?
OUT: inactive

IN: Outcome? `CC(=O)O[C@@H]1O[Si](C(C)(C)C)(C(C)(C)C)[C@H](C)[C@H]1C`
OUT: inactive
